The values you see were collected from the supplement of paper PMC9170038.

System: MS2 coat protein
measurement-notes: apparent KD of MS2 coat protein; higher = weaker reporter binding
conditions-used: Eterna round: R107; input ligand: tryptophan 2.4 mM
Assign met whenever apparent KD of MS2 coat protein does not fall below 100 nM; assign not met whenever it does.

Record excerpt, results attached:
chain-sequence	classification
AGAGUCAGACAAAAGUCUGGCUCAGCCGAAGGAGCGUCCGAAAGGACAGGUAGGUCGCGGUUACCUGAGGAUCACCCGGGUUCCU [ArgAS 25 #OpenEnded #AlternativeMS2]	met
AAAACAAACUCGGCCGCCACUCCCUCCCACCCAAGGACAUGAGGAUCACCCAUGUGGCAAAGCCCGAGGACCGGGAGAAACAAAA [Same State - Trytophan B]	not met
CCUUAAUAUAGAAGGAGCGCGCUAACAUGAGGAUCACCCAUGUAAAGGGUUUUUGGCUUAGCGCAGGUAGGUCGCUAUAAGAACC [Arg B Ex t1]	met
GGUUGGUGUGGAGACAUAUUGAUCACUGAAGGAGCGGGAAUAAACCCAGGUAGGUCGCAGAGAUCCACAUGAGGAUCACCCAUGU [!0.Q]	not met

Moving on to the next sequence.
Exercise: Kindly determine if apparent KD of MS2 coat protein recorded for AGCAUGUUAUCAGAUACCAGACAUCUUUUAAAACAUAUUACAUGAGGAUCACCCAUGUUGGUCCCUUGGCAGCUGAAAUAUUUCA [JR_Nu_SSTheophyB_Sub024] is above or exactly 100 nM.
Key: met

###

Test system: MS2 coat protein
measurement-notes: apparent KD of MS2 coat protein; designed switch direction (-1 OFF switch, 1 ON switch): 1; higher = weaker reporter binding
conditions-used: input ligand: FMN 200 uM
Decide using apparent KD of MS2 coat protein: a value greater than or equal to 0.06 µM is yes (1), a smaller one is no (0).

Look over these answered cases.
chain-sequence	classification
GUGCUCGUGUAAGGAUAUGCUUCCGUUUCGGCUGCAGAAGGUACUAUAAUACAUGAGGAUCACCCAUGUCUCUUUUGUUUGGUG [salish99_SSNG1_r04_908] (Eterna round: R96, puzzle: Same State NG 1)	yes (1)
UGGUACAUGGGAGGAUAUGGGCAUGAGACAUGAGGAUCACCCAUGUAUUAAAAGCCGAAAGGCAUCUAGAAGGCCCAUGUACCU [JL SSNG1 3.85] (Eterna round: R96, puzzle: Same State NG 2)	no (0)
GGUCGGACUCACAUGAGGAUCACCCAUGUUGCGGAAACGCAGCAGGAUAUCUGUCCGAAAAGGUCAGAGAAGGGCUAACCGACC [Fiskers NG3ss - 57] (Eterna round: R96, puzzle: Same State NG 3)	yes (1)

Exercise: Say whether GUGGUGAAUUAAGGAUAUCGAGUCUAGAUGUUAAACAUGAGGAUCACCCAUGUGGGUUGCGGUGUCGAGAAGGUGGUUUACGGG [salish99_SSNG2_r04_510] (Eterna round: R96, puzzle: Same State NG 2) shows apparent KD of MS2 coat protein of 0.06 µM or more.
Key: yes (1)

Exercise: Does GCUACAUGAGGAUCACCCAUGUGUGCGUGGGAGUGAGUGGCUUAGGAUAUCUAUGACUUUAGUUGAGAGAAGGAGGAUUGCUGU [SS-NG3-LRO11] (Eterna round: R96, puzzle: Same State NG 3) have a reported apparent KD of MS2 coat protein of at least 0.06 µM?
Key: yes (1)

Exercise: Evaluate GCGGAGAGGUAAGGAUAUCCAUGGCAUAGACAUGAGGAUCACCCAUGUAGGAGACGAAUUAGAAGGGAGAAGGUACCGGGACGC [AK SSNG2-V2-19] (Eterna round: R96, puzzle: Same State NG 2) : apparent KD of MS2 coat protein at minimum 0.06 µM?
Key: yes (1)

Exercise: Has GAGGGCGGAAACAACAUGAGGAUCACCCAUGUUGCCGAAAGGCAGGAUAUCCGGCGAAAGCAGAAGGAGAAGGGUCGAAAAGAA [AK SSNG3-V2-41] (Eterna round: R96, puzzle: Same State NG 3) a recorded apparent KD of MS2 coat protein greater than or equal to 0.06 µM?
Key: no (0)

Exercise: Kindly determine if apparent KD of MS2 coat protein recorded for GGAGACAGAGCAGGAUAUGCUCCGAGUAACGAAGCAGAAGGGUUCGUAAAUCGUCGACAUGAGGAUCACCCAUGUGACCUAGUA [Eternabot solution 18] (Eterna round: R96, puzzle: Same State NG 1) is above or exactly 0.06 µM.
Key: no (0)

Exercise: Reported apparent KD of MS2 coat protein at or above 0.06 µM? AUAAAUAACACAGGAUAUCCGCACGAGUAGUACGGAGAAGGGUGAACGUCGGCUCUCGCCAACAUGAGGAUCACCCAUGUAAAA [Usesesana] (Eterna round: R96, puzzle: Same State NG 1)
Key: yes (1)

Exercise: Form field: apparent KD of MS2 coat protein at least 0.06 µM? Entry: UUGUUUCGUCAUUAACAUGAGGAUCACCCAUGUAUUGACCCAGAGGAUAUGCAUGUUUGAUUGUAGCAGAAGGCUGAUUGUUGU [JR_SSNG3_Sub032] (Eterna round: R96, puzzle: Same State NG 3)
Key: no (0)

###

System: MS2 coat protein
measurement-notes: apparent KD of MS2 coat protein; designed switch direction (-1 OFF switch, 1 ON switch): -1; higher = weaker reporter binding
conditions-used: Eterna round: R95; input ligand: microRNA oligo, concentration not stated
experimental-readout: apparent KD of MS2 coat protein
Numeric answer plus unit only.

chain-sequence	apparent KD of MS2 coat protein
GAUUAUGCGAGCUUUAGGGACAUGAGGAUCACCCAUGUUCGUCUUAUUGAUCUGGGUACACUGACAUACCUAAAUCU [JMF 70] (puzzle: Sensor v3, turn-off variant 1)	0.115 µM
AGUAGAUCUACGCUUGCGUGGAUCUGCUAUGCAGGUGUUACAUGAGGAUCACCCAUGUCCUCAUUUGCUCGUCUUAU [JL turnoff v2 99.14] (puzzle: Sensor v3, turn-off variant 2)	0.356 µM
AGUGCGUAUGUGAGGAUAUGCUGGUCCUUGGAUCGGCAGAAGGCACAUGAGGAUCACCCAUGUGGUGUCGUACU [salish99_Bmod_ex4_084] (puzzle: Brourd's mod of Exclusion 4)	0.28 µM
UUUUAACAUGAGGAUCACCCAUGUGAGGAUAUCGUUUUUUUUAUUAAUAUUAAUAAAACGAGAAGGCACAUUUU [JMF 18] (puzzle: Exclusion 1)	0.14 µM
GGUCUGCGAGGAUAUACAUGAGGAUCACCCAUGUGCGAGAAACUAGUGAGGUCGGUUGGUAGAAGGCGCGGACG [Mat - Exclusion 3 - Mod of JL D89] (puzzle: Exclusion 3)	0.014 µM
AAUUUACAUGAGGAUCACCCAUGUCAGGAUAUGGUUUUAUUUUUUUCUUUUCUUGAUUCCAGAAGGGACAGUUA (puzzle: Exclusion 1)	0.0816 µM

Next, consider the following sequence.
Exercise: Respond only with apparent KD of MS2 coat protein recorded for AAAUAAUAGAUAAAAUAAAACAUGAGGAUCACCCAUGUGGGAUGUUGAGGGUGAAACAAGCUUUUUGCUCGUCUUAU (puzzle: Sensor v3, turn-off variant 1)
Key: 0.502 µM

###

Test system: MS2 coat protein
measurement-notes: apparent KD of MS2 coat protein; designed switch direction (-1 OFF switch, 1 ON switch): 1; higher = weaker reporter binding
conditions-used: input ligand: microRNA oligo, concentration not stated
Assign class by apparent KD of MS2 coat protein: not lower than 100 nM means t; lower than 100 nM means f.

// below: answered sequences
chain-sequence	experimental-target	classification
UUACUCAUGUAAGGAUAUGCAGCCGUUUCGGCUGCAGAAGGUACUAUAAUACAUGAGGAUCACCCAUGUCUCUAUUAUUUGGUG [salish99_SSNG1_r04_923] (Eterna round: R96, puzzle: Same State NG 1)	MS2 coat protein	f
AGGGUCGUGCUAGGAUAUCUAGGAUAUGGACGAGGAUUACCCGAGCAGCAUUAGCGCACCAGAGGAGAGAAGGAGCGUGAUGCG [pwkr ssNG2 2F5 2FMN.10] (Eterna round: R96, puzzle: Same State NG 2)	MS2 coat protein	f
GACCGCGAGGGAGGAUAUGGAGCCUUAUUGGCUCCAGAAGGUCCAUAAGGGACAUGAGGAUCACCCAUGUGGGUUGAAGCGGUC [Fiskers NG1ss - 36] (Eterna round: R96, puzzle: Same State NG 1)	MS2 coat protein	t
GUUACAUGAGGAUCACCCAUGUAUGUGUGGGAGUAAGUGUCUUAGGAUAUCUAGUAUUUAAAUUAAGAGAAGGAAGAUUGUUGU [JMF's solution 9] (Eterna round: R96, puzzle: Same State NG 3)	MS2 coat protein	f
AUUAUUUCAUGAGGAUAUGGCACCUUAUUGGUGCCAGAAGGCAUGUCAUUAGACAUGAGGAUCACCCAUGUAUUAUAUUAUAUA [Fiskers NG1ss - 13] (Eterna round: R96, puzzle: Same State NG 1)	MS2 coat protein	t
GGAAUAUUUACAGGAUAUCAUUUGUAAAUUCGAUGAGAAGGGUAGAUGUCUUACACGACGUGUUACAUGAGGAUCACCCAUGUU [SameState NG1 #7] (Eterna round: R96, puzzle: Same State NG 1)	MS2 coat protein	t

Exercise: Answer whether apparent KD of MS2 coat protein of GGCGCCGGCGCAGGAUAUAAUAGCACCAACAAAUUAGAAGGGUGUCUGACUUAAACAUGAGGAUCACCCAUGUGCGCCACAAAA [Eternabot solution 2] (Eterna round: R96, puzzle: Same State NG 1) is greater than or equal to 100 nM.
Key: t

Exercise: API: above_or_equal(metric=apparent KD of MS2 coat protein, cutoff=100 nM) for item GUGCUCGUGUGAGGAUAUGCUGCCGGGUCGGCUGCAGAAGGUACUAUUAUACAUGAGGAUCACCCAUGUCGCUUUUCUCCGGUG [salish99_SSNG1_r04_918] (Eterna round: R96, puzzle: Same State NG 1)
Key: f

Exercise: Decide: apparent KD of MS2 coat protein of GUACAUAUCAGAGGAUAUCACGUCGUUUAGACGUGAGAAGGCUGAUCACACAUGAAUAUUAAUACAUGAGGAUCACCCAUGUAC [SSNG1/13-A3] (Eterna round: R96, puzzle: Same State NG 1) >= 100 nM?
Key: f
